System: HL-1
Experiment: relative cell viability (CellTiter-Glo) vs DMSO control (% of DMSO control); higher = more viable cells
Conditions: oxygen condition: hypoxia 48 h (1% O2) + reoxygenation 24 h; 200 nM
Structures can show the parent of a compound that is named as a salt.
Field: relative cell viability. Provide a value for each of the compounds that follow.

With HL-1 as the test system, provide measured relative cell viability for this compound: C#Cc1cccc(Nc2ncnc3cc(OCCOC)c(OCCO)cc23)c1
106

With HL-1 as the test system, provide measured relative cell viability for this compound: CN(C)CCCN1c2ccccc2CCc2ccccc21 [Imipramine HCl]
98.9

With HL-1 as the test system, provide measured relative cell viability for this compound: COc1cc2ncnc(Nc3ccc(F)c(Cl)c3)c2cc1OCCCN1CCOCC1
114

With HL-1 as the test system, provide measured relative cell viability for this compound: CCN(CC)C(=S)SSC(=S)N(CC)CC
8.25

With HL-1 as the test system, provide measured relative cell viability for this compound: Nc1ncn([C@H]2C[C@H](O)[C@@H](CO)O2)c(=O)n1
104

With HL-1 as the test system, provide measured relative cell viability for this compound: O=C(Nc1ccc([N+](=O)[O-])cc1Cl)c1cc(Cl)ccc1O [Niclosamide]
3.13

With HL-1 as the test system, provide measured relative cell viability for this compound: CCN(CC)CC(=O)Nc1c(C)cccc1C
106

With HL-1 as the test system, provide measured relative cell viability for this compound: Nc1nc2[nH]cnc2c(=S)[nH]1
79.2

With HL-1 as the test system, provide measured relative cell viability for this compound: C=C1CC[C@H](O)C/C1=C/C=C1\CCC[C@]2(C)[C@@H]([C@H](C)CCCC(C)C)CC[C@@H]12
89.6

With HL-1 as the test system, provide measured relative cell viability for this compound: COc1nc(C)nc(Cl)c1NC1=NCCN1
97.1

With HL-1 as the test system, provide measured relative cell viability for this compound: Nc1ncnc2c1ncn2[C@@H]1O[C@H](CO)[C@@H](O)[C@H]1O
107

With HL-1 as the test system, provide measured relative cell viability for this compound: NC(=O)c1ncn([C@@H]2O[C@H](CO)[C@@H](O)[C@H]2O)c1N
102

With HL-1 as the test system, provide measured relative cell viability for this compound: CCC(=O)O[C@]1(C(=O)CCl)[C@@H](C)C[C@H]2[C@@H]3CCC4=CC(=O)C=C[C@]4(C)[C@@]3(F)[C@@H](O)C[C@@]21C [Clobetasol propionate]
94.4

With HL-1 as the test system, provide measured relative cell viability for this compound: Nc1cc(C(Cl)=C(Cl)Cl)c(S(N)(=O)=O)cc1S(N)(=O)=O
105

With HL-1 as the test system, provide measured relative cell viability for this compound: O=C1c2c(O)ccc(O)c2C(=O)c2c(NCCNCCO)ccc(NCCNCCO)c21 [Mitoxantrone Hydrochloride]
4.55

With HL-1 as the test system, provide measured relative cell viability for this compound: Cc1c(-c2ccc(O)cc2)n(Cc2ccc(OCCN3CCCCCC3)cc2)c2ccc(O)cc12 [Bazedoxifene HCl]
99.8

With HL-1 as the test system, provide measured relative cell viability for this compound: CC(=O)NS(=O)(=O)c1ccc(N)cc1 [sulfacetamide sodium]
98.4

With HL-1 as the test system, provide measured relative cell viability for this compound: CCOC(=O)[C@H](CCc1ccccc1)N[C@H]1CS[C@H](c2cccs2)CN(CC(=O)O)C1=O [Temocapril HCl]
102
